Test system: Klebsiella pneumoniae
Assay: Antibacterial activity against OXA-48-producing Klebsiella pneumoniae SA-Rd-KAMC-014 assessed as reduction in […] growth at 0.01 to 30 uM incubated for 24 hrs by spectrophotometry based broth microdilution assay
Assay type: functional, organism-based
Calls of active or inactive are those of the source. The calls are words filed in the database; no cut-off is given here.
Measured Endpoint: Activity

Worked examples, 4 compounds total:
CC(C)[C@H]1CC[C@@](O)(COC(=O)/C(=C/[C@H]2C=C(CO)CC[C@@H]2C(C)C)CO)[C@H]2C(=O)OCC(C(=O)O[C@@]34CC[C@H](C(C)C)[C@@H](/C=C(\CO)C(=O)O)[C@@H]3C(=O)OC4)=C[C@H]12 ... inactive
CC(C)[C@H]1CC[C@@](O)(COC(=O)/C(=C/[C@@H]2[C@@H](C(C)C)CC[C@@]3(O)COC(=O)[C@@H]23)CO)[C@@H](C(=O)O)[C@@H]1/C=C(\CO)C(=O)O[C@@]12CC[C@H](C(C)C)[C@@H](/C=C(\CO)C(=O)O)[C@@H]1C(=O)OC2 ... inactive
CC(C)[C@H]1CC[C@@](O)(COC(=O)/C(=C/[C@H]2C=C(CO)CC[C@@H]2C(C)C)CO)[C@H]2C(=O)OCC(C(=O)O)=C[C@H]12 ... inactive
CC(C)[C@H]1CC[C@@](O)(COC(=O)C2=C[C@@H]3[C@@H](C(C)C)CC[C@@](O)(COC(=O)/C(=C/[C@H]4C5=C(CC[C@@H]4C(C)C)COC5=O)CO)[C@H]3C(=O)OC2)[C@H]2C(=O)OCC(C(=O)O)=C[C@H]12 ... inactive

The compound CC(C)[C@H]1CC[C@@](O)(COC(=O)/C(=C/[C@@H]2[C@@H](C(C)C)CC[C@@](O)(COC(=O)/C(=C/[C@H]3C4=C(CC[C@@H]3C(C)C)COC4=O)CO)[C@H]2C(=O)O)CO)[C@H]2C(=O)OCC(C(=O)O)=C[C@H]12 showed Activity equal to inactive

// recorded Activity for CC(C)[C@H]1CC[C@@](O)(COC(=O)/C(=C/[C@H]2C3=C(CC[C@@H]2C(C)C)COC3=O)CO)[C@H]2C(=O)OCC(C(=O)O)=C[C@H]12 : inactive

CC(C)[C@H]1CC[C@@](O)(COC(=O)/C(=C/[C@H]2C3=C(CC[C@@H]2C(C)C)COC3=O)CO)[C@@H](C(=O)O)[C@@H]1/C=C(\CO)C(=O)O yielded Activity of inactive

Noted for CC(C)[C@H]1CC[C@@](O)(COC(=O)/C(=C/[C@@H]2[C@@H](C(C)C)CC[C@@]3(OC(=O)/C(=C/[C@H]4C=C(CO)CC[C@@H]4C(C)C)CO)COC(=O)[C@@H]23)CO)[C@H]2C(=O)OCC(C(=O)O)=C[C@H]12 : its Activity reads inactive

// CC(C)[C@H]1CC[C@@](O)(COC(=O)C2=C[C@@H]3[C@@H](C(C)C)CC[C@@](O)(COC(=O)/C(=C/[C@@H]4[C@@H](C(C)C)CC[C@@]5(O)COC(=O)[C@@H]45)CO)[C@H]3C(=O)OC2)[C@H]2C(=O)OCC(C(=O)O)=C[C@H]12 : Activity value = inactive
